Target: UniProtKB P28647
Sequence (P28647 1-320): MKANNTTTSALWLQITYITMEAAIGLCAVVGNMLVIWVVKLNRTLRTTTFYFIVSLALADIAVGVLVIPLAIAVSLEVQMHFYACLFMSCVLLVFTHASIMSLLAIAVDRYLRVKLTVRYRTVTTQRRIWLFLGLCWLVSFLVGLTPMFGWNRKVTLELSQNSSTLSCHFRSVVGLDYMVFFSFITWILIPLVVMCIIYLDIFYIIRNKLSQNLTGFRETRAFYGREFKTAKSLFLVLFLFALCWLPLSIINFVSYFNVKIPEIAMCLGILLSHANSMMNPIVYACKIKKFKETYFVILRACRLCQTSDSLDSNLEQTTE
Details: read-out: affinity at A3 receptors; rat A3, running text;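 further: radioligand binding on membrane homogenates, 1 h incubation at 37 °C in duplicate, gamma counting of filter-bound radioactivity, nonspecific binding defined using 200 µM NECA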
measured quantity: Ki (nM)

{"sample smiles": "CCNC(=O)[C@H]1O[C@@H](n2cnc3c(NC(=O)Nc4ccc(S(N)(=O)=O)cc4)ncnc32)[C@H](O)[C@@H]1O", "target or system": "UniProtKB P28647", "scale unit": "nM", "reported value": 9.7}
